- method summary: Plasma levels of 9-deoxo-16,16-dimethyl-9-methylene-PGE2 by radioimmunoassay after insertion of a suppository
- Format: in vivo, Rhesus monkeys (Macaca mulatta)
- condition description: rhesus monkey, plasma, 30 mg, plasma; Monkey #18; 3 Hours; 30 mg Potassium Salt in H15 Plus 2% CSD + 10% Triacetin Suppositories; read-out: Drug Levels
Structures can show the parent of a compound that is named as a salt.
measurement kind: concentration at 3 h (ng/mL)
Quick note: give the figure in ng/mL, leave out the unit.

What the record says about C=C1C[C@@H](O)[C@H](/C=C/[C@@H](O)C(C)(C)CCCC)[C@H]1C/C=C\CCCC(=O)O [Potassium Salt] : concentration at 3 h is 47.8
